tested on: Staphylococcus aureus; experiment: Antibacterial activity against wild type Staphylococcus aureus 4566/A assessed as reduction in microbial growth incubated for 24 hrs by microdilution assay; type: functional
# MIC per entry
Value expressed in µg/mL; do not type the unit.

Consider the following illustrative entries.
| Molecule | MIC, µg/mL |
| --- | --- |
| CCC[C@@H]1C[C@@H](C(=O)N[C@@H]([C@H]2O[C@H](SC)[C@H](O)[C@@H](O)[C@H]2O)[C@H](C)Cl)N(C)C1 | 0.125 |
| CC[C@H]1OC(=O)[C@H](C)[C@@H](O[C@H]2C[C@@](C)(OC)[C@@H](O)[C@H](C)O2)[C@H](C)[C@@H](O[C@@H]2O[C@H](C)C[C@H](N(C)C)[C@H]2O)[C@](C)(O)C[C@@H](C)C(=O)[C@H](C)[C@@H](O)[C@]1(C)O | 0.25 |
| CC1(C)S[C@@H]2[C@H](NC(=O)[C@H](N)c3ccccc3)C(=O)N2[C@H]1C(=O)O | 0.5 |
| O=C(O)c1cn(C2CC2)c2cc(N3CCNCC3)c(F)cc2c1=O | 0.25 |

Prompt line: Under Staphylococcus aureus: MIC value of O=C(N[C@H](CO)[C@H](O)c1ccc([N+](=O)[O-])cc1)C(Cl)Cl ?
Response line: 4

Prompt line: Under Staphylococcus aureus: MIC value of CCCCCCOP(=O)(CCN(CCCNC(=N)N)CCCNC(=N)N)OCCCCCCCCOP(=O)(CCN(CCCNC(=N)N)CCCNC(=N)N)OCCCCCC.Cl.Cl.Cl.Cl.Cl.Cl (stereo unspecified) ?
Response line: 0.5
